assay_system: human A2a receptor (Homo sapiens (Human))
Sequence (P29274 whole entry): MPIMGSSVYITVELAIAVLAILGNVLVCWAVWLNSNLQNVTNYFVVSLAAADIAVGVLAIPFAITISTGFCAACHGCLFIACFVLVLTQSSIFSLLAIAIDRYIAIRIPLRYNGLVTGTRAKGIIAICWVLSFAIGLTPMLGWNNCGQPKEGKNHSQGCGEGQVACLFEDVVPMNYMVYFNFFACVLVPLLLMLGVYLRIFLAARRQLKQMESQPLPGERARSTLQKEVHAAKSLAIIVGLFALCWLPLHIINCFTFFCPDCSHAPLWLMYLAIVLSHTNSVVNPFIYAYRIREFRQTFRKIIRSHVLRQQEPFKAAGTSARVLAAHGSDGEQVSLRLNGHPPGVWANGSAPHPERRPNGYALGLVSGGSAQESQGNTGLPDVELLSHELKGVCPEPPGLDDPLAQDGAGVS
method_summary: A2a competition binding assay using Scintillation Proximity technology
experimental_parameters: 0.25 μg of membranes from HEK293 cells expressing the human A2a receptor
Please go through the items and note down their pKi.
Scale note: pKi = -log10(concentration in M).

Given item Nc1nc(C(=O)NCc2cccc(CO)n2)c2cccc(F)c2n1 , the value recorded as its pKi is 8.02

Given item COc1cccc2c(C(=O)NCc3ncccc3F)nc(N)nc12 , the value recorded as its pKi is 8.85

Given item COc1cccc2c(C(=O)NCc3nc(C)ccc3F)nc(N)nc12 , the value recorded as its pKi is 9.30

Given item COc1ccc(C(C)(C)O)nc1CNC(=O)c1nc(N)nc2c(OC)cccc12 , the value recorded as its pKi is 8.00

Given item COc1cccc2c(C(=O)NC3CCc4ccccc4C3)nc(N)nc12 (stereo not shown) , the value recorded as its pKi is 7.70

Given item CS(=O)(=O)c1cccc2c(C(=O)NCc3cccc4cccnc34)nc(N)nc12 , the value recorded as its pKi is 7.07

Given item COc1cccc2c(C(=O)NCc3ncc(F)cc3F)nc(N)nc12 , the value recorded as its pKi is 8.54

Given item Cc1csc(-c2cccc(CNC(=O)c3nc(N)nc4c(F)cccc34)n2)n1 , the value recorded as its pKi is 8.38

Given item Nc1nc(C(=O)NCc2cccc3cccnc23)c2cccc(C(F)(F)F)c2n1 , the value recorded as its pKi is 8.64

Given item COc1cccc2c(C(=O)NCc3ncccc3C)nc(N)nc12 , the value recorded as its pKi is 9.05

Given item Cc1ccc(F)c(CNC(=O)c2nc(N)nc3c(F)cccc23)n1 , the value recorded as its pKi is 9.30

Given item Nc1nc(C(=O)NCc2cccc3cccnc23)c2cccc(-c3cncnc3)c2n1 , the value recorded as its pKi is 6.54

Given item C[C@@H](NC(=O)c1nc(N)nc2c(F)cccc12)c1cccc2cccnc12 , the value recorded as its pKi is 8.17

Given item COc1cccc2c(C(=O)NCc3cccc(C(F)(F)F)n3)nc(N)nc12 , the value recorded as its pKi is 9.40

Given item CC1(O)CCN(c2cccc(CNC(=O)c3nc(N)nc4c(F)cccc34)n2)CC1 , the value recorded as its pKi is 8.28

Given item COc1cccc2c(C(=O)NC3CCc4cccnc43)nc(N)nc12 (stereo not shown) , the value recorded as its pKi is 8.74

Given item Nc1nc(C(=O)NCc2ccccc2-n2cccn2)c2cccc(F)c2n1 , the value recorded as its pKi is 9.30

Given item COc1ccc(CNC(=O)c2nc(N)nc3c(OC)cccc23)nc1 , the value recorded as its pKi is 8.11

Given item Nc1nc(C(=O)NCc2cc(C3CC3)on2)c2cccc(F)c2n1 , the value recorded as its pKi is 7.85

###

assay_system: human A1 receptor (Homo sapiens (Human), UniProt P30542)
Sequence (P30542 whole entry): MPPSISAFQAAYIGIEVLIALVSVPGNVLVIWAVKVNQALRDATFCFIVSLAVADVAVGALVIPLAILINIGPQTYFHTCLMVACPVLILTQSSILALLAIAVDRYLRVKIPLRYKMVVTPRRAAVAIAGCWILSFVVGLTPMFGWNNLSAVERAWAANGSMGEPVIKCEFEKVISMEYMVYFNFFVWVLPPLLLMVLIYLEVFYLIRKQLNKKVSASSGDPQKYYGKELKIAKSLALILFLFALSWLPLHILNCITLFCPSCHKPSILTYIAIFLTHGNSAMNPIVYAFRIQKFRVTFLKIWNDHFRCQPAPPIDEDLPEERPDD
method_summary: A1 competition binding assay using Scintillation Proximity technology; selectivity = A1 binding Ki / A2a binding Ki
experimental_parameters: A1 binding Ki divided by A2a binding Ki
Outcome label depends on A2a selectivity (A2a A1 binding selectivity) relative to 100: at/above gives YES, below gives NO.

Does COc1cccc2c(C(=O)NCc3cccc(COCC4CCCC4)n3)nc(N)nc12 [Example 49] have a reported A2a selectivity (A2a A1 binding selectivity) of at least 100? YES

Does Nc1nc(C(=O)NCc2ccccc2-c2ncccn2)c2cccc(F)c2n1 [Example 64] have a reported A2a selectivity (A2a A1 binding selectivity) of at least 100? YES

Does Nc1nc(C(=O)NCc2cccc(Cc3ccncc3)n2)c2cccc(F)c2n1 [Example 112] have a reported A2a selectivity (A2a A1 binding selectivity) of at least 100? NO

Does COc1cccc2c(C(=O)NCc3cccc(C)n3)nc(N)nc12 [Example 15] have a reported A2a selectivity (A2a A1 binding selectivity) of at least 100? YES

Does [2H]C([2H])(NC(=O)c1nc(N)nc2c(OC)cccc12)c1cccc(N2CCN(c3ccc(OCCOC)cc3)CC2)n1 [Example 60] have a reported A2a selectivity (A2a A1 binding selectivity) of at least 100? NO

Does COc1cccc2c(C(=O)NCc3cccc(COc4cccc(F)c4)n3)nc(N)nc12 [Example 54] have a reported A2a selectivity (A2a A1 binding selectivity) of at least 100? NO

Does Nc1nc(C(=O)NCc2cccc3cncn23)c2cccc(F)c2n1 [Example 80] have a reported A2a selectivity (A2a A1 binding selectivity) of at least 100? NO

Does Nc1nc(C(=O)NCc2cccc3cccnc23)c2cccc(OC(F)(F)F)c2n1 [Example 101] have a reported A2a selectivity (A2a A1 binding selectivity) of at least 100? NO

Does COc1cccc2c(C(=O)NCc3nc(-c4ccccc4)c(C)o3)nc(N)nc12 [Example 31] have a reported A2a selectivity (A2a A1 binding selectivity) of at least 100? YES

Sourced from patent US10138212B2
